format: in vivo, rhesus macaques (Macaca mulatta); conditions: female, Indian, rhesus monkey, cervical tissue / plasma, intramuscular, 50 mg/kg
readout_type: Kp

INSERT INTO measurements (compound, value) VALUES
  ('C[C@H]1CO[C@@H]2Cn3cc(C(=O)NCc4ccc(F)cc4F)c(=O)c(O)c3C(=O)N12 [GSK744]', '~0.1');
